B1: Far upstream element-binding protein 1, residues 98 to 169; numbered along this chain, Q96AE4 (parent)
chain: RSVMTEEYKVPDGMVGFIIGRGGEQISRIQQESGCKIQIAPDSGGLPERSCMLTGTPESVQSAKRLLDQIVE

Variants of: B1
measurement_protocol: abundance fitness (aPCA) (normalised: wild type 0, dead -1); higher = more abundant; growth selection in yeast, the domain comes from the species named
test_context: Homo sapiens
Give measured abundance fitness for each item. Keep answers brief.

Q) I'd like to know its abundance fitness. The variant in question is `G13E`
A) 0.041

Q) I'd like to know its abundance fitness. The variant in question is `E48N`
A) -0.019

Q) I'd like to know its abundance fitness. The variant in question is `Q38K`
A) -0.041

Q) I'd like to know its abundance fitness. The variant in question is `Y8L`
A) -0.059

Q) I'd like to know its abundance fitness. The variant in question is `T56R`
A) -0.058

Q) I'd like to know its abundance fitness. The variant in question is `G44N`
A) -0.024

Q) I'd like to know its abundance fitness. The variant in question is `A63G`
A) -0.069

Q) I'd like to know its abundance fitness. The variant in question is `R49S`
A) -0.086

Q) I'd like to know its abundance fitness. The variant in question is `I70V`
A) 0.001

Q) I'd like to know its abundance fitness. The variant in question is `I26C`
A) -0.103

Q) I'd like to know its abundance fitness. The variant in question is `D68M`
A) -0.011

Q) I'd like to know its abundance fitness. The variant in question is `D42Q`
A) -0.054

Q) I'd like to know its abundance fitness. The variant in question is `K9I`
A) -0.079

Q) I'd like to know its abundance fitness. The variant in question is `K64I`
A) -0.097

Q) I'd like to know its abundance fitness. The variant in question is `I26V`
A) -0.104

Q) I'd like to know its abundance fitness. The variant in question is `L67Q`
A) -0.575

Q) I'd like to know its abundance fitness. The variant in question is `D12Q`
A) -0.027

Q) I'd like to know its abundance fitness. The variant in question is `D42R`
A) -0.027

Q) I'd like to know its abundance fitness. The variant in question is `G55E`
A) -1.12

Q) I'd like to know its abundance fitness. The variant in question is `S62I`
A) -0.082

Q) I'd like to know its abundance fitness. The variant in question is `C51Y`
A) -0.116

Q) I'd like to know its abundance fitness. The variant in question is `G22C`
A) -0.103

Q) I'd like to know its abundance fitness. The variant in question is `C35R`
A) -0.935

Q) I'd like to know its abundance fitness. The variant in question is `S27L`
A) -0.054

Q) I'd like to know its abundance fitness. The variant in question is `L67F`
A) -0.121

Q) I'd like to know its abundance fitness. The variant in question is `G34D`
A) -0.094

Q) I'd like to know its abundance fitness. The variant in question is `Q69G`
A) -0.002

Q) I'd like to know its abundance fitness. The variant in question is `S50G`
A) -0.054

Q) I'd like to know its abundance fitness. The variant in question is `D12L`
A) -0.064

Q) I'd like to know its abundance fitness. The variant in question is `G23D`
A) -0.051

Q) I'd like to know its abundance fitness. The variant in question is `R65Y`
A) -0.053

Q) I'd like to know its abundance fitness. The variant in question is `G20R`
A) -0.112

Q) I'd like to know its abundance fitness. The variant in question is `E6L`
A) -0.033

Q) I'd like to know its abundance fitness. The variant in question is `S43M`
A) -0.087

Q) I'd like to know its abundance fitness. The variant in question is `G22M`
A) -0.129

Q) I'd like to know its abundance fitness. The variant in question is `V3K`
A) 0.03

Q) I'd like to know its abundance fitness. The variant in question is `Y8A`
A) -0.221

Q) I'd like to know its abundance fitness. The variant in question is `M52D`
A) -0.139

Q) I'd like to know its abundance fitness. The variant in question is `R28K`
A) -0.028

Q) I'd like to know its abundance fitness. The variant in question is `T56E`
A) -0.036

Q) I'd like to know its abundance fitness. The variant in question is `I70Q`
A) -0.019

Q) I'd like to know its abundance fitness. The variant in question is `S43P`
A) -0.234

Q) I'd like to know its abundance fitness. The variant in question is `I19P`
A) -0.211

Q) I'd like to know its abundance fitness. The variant in question is `G23H`
A) -0.159

Q) I'd like to know its abundance fitness. The variant in question is `L53F`
A) -0.349

Q) I'd like to know its abundance fitness. The variant in question is `V71G`
A) -0.061

Data origin: the Human Domainome abundance scans (Beltran et al. 2025)
